# TEST_SYSTEM: T1, NrnCBh (nano-RNase C) (Bartonella henselae, UniProt A0A0R4J6U7 1-206)
# T1 sequence: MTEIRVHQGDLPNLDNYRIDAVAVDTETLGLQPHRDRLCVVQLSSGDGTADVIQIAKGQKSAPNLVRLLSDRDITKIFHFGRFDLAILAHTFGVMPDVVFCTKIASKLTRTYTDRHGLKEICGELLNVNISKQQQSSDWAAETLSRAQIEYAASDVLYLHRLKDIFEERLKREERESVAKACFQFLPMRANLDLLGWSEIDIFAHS
# ASSAY_EXPLANATION: DraCALA (nitrocellulose); DraCALA: 10 mM Tris-HCl pH 8, 100 mM NaCl, 5 mM CaCl2; temperature not stated
# APPLIED_CONDITIONS: protein: recombinant; tags: tag-less (His6-SUMO removed by Ulp-1); chain copies: 8
MEASURED_QUANTITY: Kd (nM)
Give a bare numeral; the unit nM is implied.

The reported Kd of the binder AAAAAGG (ssRNA, 5' phosphate) [pAAAAAGG] was 576
